Where these numbers come from: paper PMC2989642

Target: α3β4 receptors (in the α5β2 KO) (Mus musculus, UniProt Q8R493+Q8R4G9)
Sequence (Q8R4G9 26-499): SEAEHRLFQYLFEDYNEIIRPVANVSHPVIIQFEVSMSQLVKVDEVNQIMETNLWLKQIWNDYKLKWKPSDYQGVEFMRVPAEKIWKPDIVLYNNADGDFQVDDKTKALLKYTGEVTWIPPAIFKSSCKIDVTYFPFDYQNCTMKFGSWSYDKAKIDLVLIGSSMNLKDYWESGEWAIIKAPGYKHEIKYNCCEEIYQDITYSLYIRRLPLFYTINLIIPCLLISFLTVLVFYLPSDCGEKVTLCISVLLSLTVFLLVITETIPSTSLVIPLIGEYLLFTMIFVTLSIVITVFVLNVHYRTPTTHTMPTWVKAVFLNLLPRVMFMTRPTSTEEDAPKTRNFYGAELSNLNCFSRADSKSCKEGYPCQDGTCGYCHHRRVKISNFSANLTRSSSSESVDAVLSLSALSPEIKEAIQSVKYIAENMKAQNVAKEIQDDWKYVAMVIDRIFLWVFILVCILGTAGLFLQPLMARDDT
Sequence (Q8R493 21-495): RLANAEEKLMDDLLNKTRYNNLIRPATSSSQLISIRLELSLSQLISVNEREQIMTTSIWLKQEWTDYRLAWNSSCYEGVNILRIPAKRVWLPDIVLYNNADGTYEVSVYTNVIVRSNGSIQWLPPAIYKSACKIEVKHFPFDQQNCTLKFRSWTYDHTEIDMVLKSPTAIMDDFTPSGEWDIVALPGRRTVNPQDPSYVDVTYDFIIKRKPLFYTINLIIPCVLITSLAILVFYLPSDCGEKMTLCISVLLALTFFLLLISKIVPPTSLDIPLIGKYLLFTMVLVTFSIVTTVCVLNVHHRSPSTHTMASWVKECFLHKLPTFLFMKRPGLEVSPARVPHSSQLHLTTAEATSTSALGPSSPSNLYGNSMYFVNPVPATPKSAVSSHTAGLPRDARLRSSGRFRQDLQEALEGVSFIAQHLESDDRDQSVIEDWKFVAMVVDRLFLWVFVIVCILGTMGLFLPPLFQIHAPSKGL
Experiment: cell-based
Details: EC50
// values below are reported EC50
The answer is to be given in µM; state only the numeric part.

-- ask Which EC50 is listed for C[N+]1(C)CCN(c2ccccc2)CC1.[I-] [DMPP, 1,1-dimethyl-4-phenylpiperazinium iodide] ?
-- reply 19

Further cases:
-- ask Request the reported EC50 associated with "O=c1cccc2n1C[C@@H]1CNC[C@H]2C1"
-- reply 34.5

----------
Target: α3β2 receptors (in the α5β4 KO) (Mus musculus, UniProt Q8R4G9+Q9ERK7)
Sequence (Q8R4G9 26-499): as the sequence (Q8R4G9 26-499) above
Sequence (Q9ERK7 26-501): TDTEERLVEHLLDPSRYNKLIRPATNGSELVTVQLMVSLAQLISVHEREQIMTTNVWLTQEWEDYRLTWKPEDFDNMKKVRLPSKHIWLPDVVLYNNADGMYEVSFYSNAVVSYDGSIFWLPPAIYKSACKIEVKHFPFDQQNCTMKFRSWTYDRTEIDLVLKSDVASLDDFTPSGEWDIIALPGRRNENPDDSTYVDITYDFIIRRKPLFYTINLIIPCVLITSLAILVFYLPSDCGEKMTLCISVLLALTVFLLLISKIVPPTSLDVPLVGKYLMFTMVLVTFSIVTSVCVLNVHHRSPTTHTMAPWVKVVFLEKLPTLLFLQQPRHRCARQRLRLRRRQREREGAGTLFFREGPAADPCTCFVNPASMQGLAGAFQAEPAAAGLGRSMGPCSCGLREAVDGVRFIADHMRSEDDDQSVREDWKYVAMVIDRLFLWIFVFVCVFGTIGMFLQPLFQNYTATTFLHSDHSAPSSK
Assay: cell-based
Measured pEC50 of individual entries
Remember the convention: pEC50 equals -log10 of concentration in molar.

-- ask Give its pEC50 value. Item: "CC(=O)OCC[N+](C)(C)C"
-- reply 3.77

-- ask Another: C[N+]1(C)CCN(c2ccccc2)CC1.[I-] [DMPP, 1,1-dimethyl-4-phenylpiperazinium iodide]
-- reply 4.96

----------
Target: α3β4α5 receptors (in the β2 KO) (Mus musculus, UniProt Q8R493+Q8R4G9)
Sequence (Q8R4G9 26-499): as the sequence (Q8R4G9 26-499) above
Sequence (Q8R493 21-495): as the sequence (Q8R493 21-495) above
Sequence (Q2MKA5 30-467 partner): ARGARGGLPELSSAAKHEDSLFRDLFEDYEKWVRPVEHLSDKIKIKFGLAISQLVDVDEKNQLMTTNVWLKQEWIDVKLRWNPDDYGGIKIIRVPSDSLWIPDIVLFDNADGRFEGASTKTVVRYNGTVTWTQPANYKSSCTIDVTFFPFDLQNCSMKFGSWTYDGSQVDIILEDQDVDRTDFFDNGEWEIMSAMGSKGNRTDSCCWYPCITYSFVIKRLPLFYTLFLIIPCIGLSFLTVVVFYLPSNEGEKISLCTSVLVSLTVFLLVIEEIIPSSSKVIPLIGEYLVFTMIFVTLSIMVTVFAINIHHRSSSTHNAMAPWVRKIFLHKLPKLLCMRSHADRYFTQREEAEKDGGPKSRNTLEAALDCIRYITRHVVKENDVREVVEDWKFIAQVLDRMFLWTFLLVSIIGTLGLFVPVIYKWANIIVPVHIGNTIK
Type: cell-based
quantityName: pEC50
Value format note: pEC50 is -log10 of concentration (mol/L); just state the number.

-- ask // query pEC50 value for entry C[N+]1(C)CCN(c2ccccc2)CC1.[I-] [DMPP, 1,1-dimethyl-4-phenylpiperazinium iodide]
-- reply 4.64

More entries:
-- ask I am curious: what pEC50 value has been reported for "O=c1cccc2n1C[C@@H]1CNC[C@H]2C1" ?
-- reply 4.42
